# experimental_system: cloned human dopamine D3 receptors (Homo sapiens, UniProt P35462)
# Construct: expressed in transfected cells; membrane homogenate
# Sequence (P35462 whole entry): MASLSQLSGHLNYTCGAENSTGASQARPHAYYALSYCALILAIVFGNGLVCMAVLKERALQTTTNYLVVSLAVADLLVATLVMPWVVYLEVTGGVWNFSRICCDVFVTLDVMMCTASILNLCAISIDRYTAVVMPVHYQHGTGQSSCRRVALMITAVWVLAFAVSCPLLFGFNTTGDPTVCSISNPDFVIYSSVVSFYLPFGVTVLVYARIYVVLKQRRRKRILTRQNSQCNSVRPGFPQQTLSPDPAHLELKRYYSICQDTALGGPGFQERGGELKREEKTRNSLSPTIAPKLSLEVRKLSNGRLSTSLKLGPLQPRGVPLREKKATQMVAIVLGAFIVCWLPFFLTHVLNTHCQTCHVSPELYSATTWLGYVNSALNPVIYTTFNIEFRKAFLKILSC
# test_method_notes: [N-Methyl-3H]Spiroperidol binding to cloned human dopamine D3 receptors (Protocol 1)
# condition_label: the 14th table; read-out: D3 Ki

compound: O=C(NCCCCCN1CCN(c2csc3cc(F)ccc23)CC1)c1cccc(Cl)c1 [compound 826775]
Ki: 6.24 nM
//
compound: O=C(NCCCCCN1CCN(c2csc3cc(C(F)(F)F)ccc23)CC1)c1cccs1 [compound 826764]
Ki: 7.8 nM
//
compound: O=C(NCCCCCN1CCN(c2csc3cc(C(F)(F)F)ccc23)CC1)c1ccc2[nH]ccc2c1 [compound 826799]
Ki: 6.48 nM
//
compound: Cc1ccccc1C(=O)NCCCCCN1CCN(c2csc3cc(C(F)(F)F)ccc23)CC1 [compound 826771]
Ki: 6.7 nM
